molecular target: Integrin beta-1 (Homo sapiens) + Integrin alpha-4 (Homo sapiens) (UniProt P13612+P05556); assay: alpha4beta1 integrin LIBS antibody binding reduction – U937 cells, HUTS-21 mAb, flow cytometry, validation set, VLA-4 allosteric modulator project, pilot screen (AID 2674); conditions: HUTS-21 LIBS mAb binding, at 6.7 µM, stronger effect = higher value, binding induced by LDV ligand;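 also: antibody binding induced by the VLA-4 ligand LDV present at three times its Kd; 0% = LDV ligand with antibody and no compound and 100% = antibody without LDV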
Sequence (P05556 whole entry, looked up): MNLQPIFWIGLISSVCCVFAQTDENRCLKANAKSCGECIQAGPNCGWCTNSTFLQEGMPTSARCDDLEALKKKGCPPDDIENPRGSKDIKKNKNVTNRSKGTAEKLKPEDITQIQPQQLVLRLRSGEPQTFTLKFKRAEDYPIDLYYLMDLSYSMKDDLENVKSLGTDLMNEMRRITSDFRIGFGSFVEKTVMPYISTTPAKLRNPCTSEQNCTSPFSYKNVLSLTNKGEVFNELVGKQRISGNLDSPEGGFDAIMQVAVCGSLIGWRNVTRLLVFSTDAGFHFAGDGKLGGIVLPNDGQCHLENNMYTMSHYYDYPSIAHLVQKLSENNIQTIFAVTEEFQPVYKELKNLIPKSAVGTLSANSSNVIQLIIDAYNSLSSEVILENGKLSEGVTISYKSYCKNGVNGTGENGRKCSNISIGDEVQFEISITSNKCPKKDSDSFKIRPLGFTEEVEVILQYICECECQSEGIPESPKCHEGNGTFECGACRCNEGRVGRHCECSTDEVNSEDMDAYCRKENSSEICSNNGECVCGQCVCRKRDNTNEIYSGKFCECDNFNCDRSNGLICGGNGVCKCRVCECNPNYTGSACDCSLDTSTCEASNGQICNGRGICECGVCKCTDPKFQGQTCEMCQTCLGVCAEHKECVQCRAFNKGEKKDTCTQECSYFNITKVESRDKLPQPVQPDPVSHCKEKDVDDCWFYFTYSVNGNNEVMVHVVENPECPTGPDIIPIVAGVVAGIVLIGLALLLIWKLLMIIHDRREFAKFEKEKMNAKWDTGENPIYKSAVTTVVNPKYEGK
Sequence (P13612 whole entry, looked up): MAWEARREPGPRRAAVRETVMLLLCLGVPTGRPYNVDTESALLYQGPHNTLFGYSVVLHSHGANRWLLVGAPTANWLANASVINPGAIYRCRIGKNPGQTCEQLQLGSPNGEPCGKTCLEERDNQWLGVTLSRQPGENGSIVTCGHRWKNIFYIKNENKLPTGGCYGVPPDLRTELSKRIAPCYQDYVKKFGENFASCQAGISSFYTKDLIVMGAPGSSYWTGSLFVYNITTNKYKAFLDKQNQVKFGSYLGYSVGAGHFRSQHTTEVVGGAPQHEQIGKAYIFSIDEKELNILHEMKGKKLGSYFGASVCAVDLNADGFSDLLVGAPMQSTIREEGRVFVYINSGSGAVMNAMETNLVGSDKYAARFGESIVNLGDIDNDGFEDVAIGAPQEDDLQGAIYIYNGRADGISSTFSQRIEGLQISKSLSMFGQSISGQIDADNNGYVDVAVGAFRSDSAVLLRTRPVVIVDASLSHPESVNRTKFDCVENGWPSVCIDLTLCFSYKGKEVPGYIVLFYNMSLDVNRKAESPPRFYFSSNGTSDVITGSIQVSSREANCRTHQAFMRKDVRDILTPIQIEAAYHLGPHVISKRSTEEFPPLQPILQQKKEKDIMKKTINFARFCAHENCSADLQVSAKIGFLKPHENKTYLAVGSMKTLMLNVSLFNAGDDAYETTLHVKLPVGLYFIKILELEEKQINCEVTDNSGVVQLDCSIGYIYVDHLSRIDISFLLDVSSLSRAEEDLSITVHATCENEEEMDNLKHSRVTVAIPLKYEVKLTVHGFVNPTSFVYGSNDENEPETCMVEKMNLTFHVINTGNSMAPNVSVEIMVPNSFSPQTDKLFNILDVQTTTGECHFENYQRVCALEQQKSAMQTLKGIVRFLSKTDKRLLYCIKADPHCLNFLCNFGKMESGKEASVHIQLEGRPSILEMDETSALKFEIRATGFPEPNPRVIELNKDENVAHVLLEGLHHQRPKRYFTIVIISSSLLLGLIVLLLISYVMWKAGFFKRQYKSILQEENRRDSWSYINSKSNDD
Parameter: inhibition (%)
Enter your answer as a number in %; do not include the unit.

Q: Form field: reported inhibition of CCOC(=O)c1oc2cc(O)cc(C)c2c(=O)c1-c1cscn1
Ans: 3.67

Q: Name the reported inhibition value associated with the compound c1ccc(Nc2ccccn2)nc1
Ans: -3.16

Q: Value lookup for inhibition; key = Cc1ccc2c(c1)c(=O)c1c3n2CCN(C(=O)CCl)C3CC1 (configuration not stated)
Ans: -10.5

Q: Give its inhibition value. Item: COc1ccccc1C(=O)Nc1cc2cc(Br)ccc2oc1=O
Ans: -4.61

Q: Consider the compound NC(N)=NC(N)=NCCc1ccccc1 and give its measured inhibition.
Ans: 3.7

Q: Request the reported inhibition associated with CC(C)c1ccc(NC(=O)CNS(=O)(=O)c2ccc(F)cc2)cc1
Ans: -3.16

Q: I have this compound here, CN(C)CCCN1c2ccccc2Sc2ccccc21 , and I need its recorded inhibition.
Ans: 44

* * *

assay: Nile Red efflux blockade in pump-expressing yeast – validation compound set, multiplex, phenotypic, pilot screen (AID 588506);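 also: Nile Red retained in cells so higher fluorescence means more efflux inhibition; 0 = negative control wells and 1 = enniatin B 25 µM full block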; conditions: S. cerevisiae pump-expressing triplex, Nile Red efflux flow cytometry; at 10 µM; stronger effect = higher value; the pumps come from Candida albicans
So I've got a bunch of compounds here, and I need their efflux inhibition (fraction of control) values.
Kindly provide the number alone.

Q: Endpoint output: efflux inhibition (fraction of control) of CCN(CCCCOC(=O)c1ccc(OC)c(OC)c1)C(C)Cc1ccc(OC)cc1 (stereo unspecified) . Value?
Ans: -0.09

Q: // returns reported efflux inhibition (fraction of control) for input CC1(C)CC(CC(=O)O)(c2ccc(Cl)cc2)CCO1 (stereo unspecified)
Ans: -0.17

Q: If you can, please state the reported efflux inhibition (fraction of control) value of CCC(C(=O)Nc1ccc2c(c1)OCCO2)c1ccccc1 (stereo unspecified) .
Ans: -0.03

Q: Any idea what its efflux inhibition (fraction of control) is? The compound is CC/C(=C(\c1ccc(O)cc1)c1ccc(OCCN(C)C)cc1)c1ccccc1
Ans: 0.29

Q: Report efflux inhibition (fraction of control) for Cc1cc(C)nc(NS(=O)(=O)c2ccc(N)cc2)n1 please.
Ans: 0.11

Q: # input compound: CCN1C(=O)C(CC(=O)Nc2ccc(OC)cc2)N(CCc2ccc(F)cc2)C1=S (stereo unspecified) ; wanted: its efflux inhibition (fraction of control)
Ans: 0.19

Q: Record request: efflux inhibition (fraction of control) value, item COc1ccc(/C=C/C(=O)Nc2ccccc2C(=O)O)cc1OC
Ans: 0.02

Q: What does the record list as efflux inhibition (fraction of control) for COc1ccccc1OCC(=O)O ?
Ans: -0.06

Q: Recorded efflux inhibition (fraction of control) of NS(=O)(=O)c1ccc(CCNC(=O)C2CCCN2C(=O)OCc2ccccc2)cc1 (stereo unspecified) , please.
Ans: 0.19

Q: So what does the record say about efflux inhibition (fraction of control) for O=C(N1CCCCC1)C1(c2ccccc2)CCOCC1 ?
Ans: -0.17

Q: Recorded efflux inhibition (fraction of control) for CCc1oc2ccccc2c1C(=O)c1cc(Br)c(O)c(Br)c1 , please?
Ans: 0.01
